Origin of values: PubChem BioAssay AID330

system: P388 leukemia ip, CD2F1 mice, survival T/C; test: NCI In Vivo Anticancer Drug Screen. Data for tumor model P388 Leukemia (intraperitoneal) in CD2F1 (CDF1) mice; conditions: endpoint: median survival time; dose: 25.0 mg/kg/injection; schedule: Q04DX003 (ip); vehicle: saline with Tween-80; higher = longer survival
Toxic doses and inconclusive results are not listed.
QUANTITY_MEASURED: T/C

Worked examples, 6 compounds total:
# COMPOUND, T/C
records = [
    ("NC(=O)Nc1ccc(/C=C\\c2ccnc3ccccc23)cc1", "96 % of control"),
    ("S=c1nc(N2CCOCC2)n(/C=C/c2ccccc2)c(=S)n1C(=N/C=C/c1ccccc1)N1CCOCC1", "113 % of control"),
    ("O=C(O)c1cc(Br)c2ccccc2c1O", "100 % of control"),
    ("c1ccc(-c2n[nH]c3ccccc23)cc1", "101 % of control"),
    ("O=[N+]([O-])/C=C/c1c(Cl)cccc1Cl", "100 % of control"),
    ("Cc1n[nH]c(=S)nc1C", "93 % of control"),
]

Turning now to a further compound:
Find the recorded T/C belonging to COC(CNC(=O)Nc1cccnc1)[CH2][Hg][Cl] (configuration not stated) and report it.
91 % of control

---

test system: P388 leukemia ip, CD2F1 mice, survival T/C; assay: NCI In Vivo Anticancer Drug Screen. Data for tumor model P388 Leukemia (intraperitoneal) in CD2F1 (CDF1) mice; conditions: endpoint: median survival time; dose: 25.0 mg/kg/injection; schedule: Q01DX005 (ip); vehicle: Klucel (hydroxypropylcellulose) (HPC); higher = longer survival
Inconclusive results and toxic doses are left out.
T/C listing for selected compounds.

# COMPOUND, T/C
rows = [
    ("O=C1OC(=O)C2=C1C1c3ccccc3C2c2ccccc21", "109 % of control"),
    ("O=C1NC(=O)/C(=C\\c2ccccc2)C2=C1CCCC2", "103 % of control"),
    ("Cc1c(N=Nc2cccc(Cl)c2Cl)c(-c2ccccc2)nn1C(N)=S", "94 % of control"),
    ("CCN(CC)CCOC(=O)Cc1cccc2c(=O)cc(-c3ccc(OC)cc3)oc12", "113 % of control"),
    ("Cc1cc(N/N=C/c2ccc(F)cc2)c2cc3c(cc2n1)OCO3", "104 % of control"),
]

Find the recorded T/C belonging to CC(CO)c1cc2c(cc1O)[C@@]1(C)CCCC(C)(C)[C@@H]1CC2 (stereo partly specified) and report it.
99 % of control

Find the recorded T/C belonging to CCC1OC(OC)C=CC1=O (stereo unspecified) and report it.
114 % of control

Find the recorded T/C belonging to CC1(C)COC(=O)C(C#N)=C1CBr and report it.
105 % of control

Find the recorded T/C belonging to O=[N+]([O-])c1c(Cl)nc(-c2ccccc2)nc1Cl and report it.
100 % of control

Find the recorded T/C belonging to C=C1C2CC[C@H]3C4(C)CCCC(C)(C(=O)O)[C@H]4CCC3(C2)[C@@H]1OC(C)=O (stereo partly specified) and report it.
88 % of control

Find the recorded T/C belonging to NCCSSc1ccccc1[N+](=O)[O-] and report it.
94 % of control

Find the recorded T/C belonging to O=C1c2c(O)cccc2C(C2OC(CO)C(O)C(O)C2O)c2cc(CO)cc(O)c21 (stereo unspecified) and report it.
101 % of control

Find the recorded T/C belonging to O=C(Nc1ccc(Oc2ccc(Cl)cc2)c(Cl)c1)c1cc(I)cc(I)c1O and report it.
109 % of control

Find the recorded T/C belonging to Cn1nnc(-c2cccc(F)c2)n1 and report it.
105 % of control
